Where do these numbers come from? They come from paper PMC7268545.

Target: human ANO1 channel (isoform acd) (Homo sapiens, UniProt Q5XXA6)
Construct: host or cells: HEK293T
Assay: QPatch-48 automated whole-cell electrophysiology, cumulative five-concentration single-addition protocol
Assay type: cell-based
Settings: QPatch, 1-min incubations; read-out: concentration inhibiting 50% of channel current
endpoint.name: IC50

>>> print(df.to_string())
                                   compound  endpoint_name    result
0  O=C(Nc1ccc([N+](=O)[O-])cc1Cl)c1cc(Cl)ccc1O [Niclosamide]           IC50  ~1000 nM

* * *

Molecular target: human ANO1 channel (isoform acd) (Homo sapiens)
Construct: host or cells: HEK293T
Sequence (Q5XXA6 1-986): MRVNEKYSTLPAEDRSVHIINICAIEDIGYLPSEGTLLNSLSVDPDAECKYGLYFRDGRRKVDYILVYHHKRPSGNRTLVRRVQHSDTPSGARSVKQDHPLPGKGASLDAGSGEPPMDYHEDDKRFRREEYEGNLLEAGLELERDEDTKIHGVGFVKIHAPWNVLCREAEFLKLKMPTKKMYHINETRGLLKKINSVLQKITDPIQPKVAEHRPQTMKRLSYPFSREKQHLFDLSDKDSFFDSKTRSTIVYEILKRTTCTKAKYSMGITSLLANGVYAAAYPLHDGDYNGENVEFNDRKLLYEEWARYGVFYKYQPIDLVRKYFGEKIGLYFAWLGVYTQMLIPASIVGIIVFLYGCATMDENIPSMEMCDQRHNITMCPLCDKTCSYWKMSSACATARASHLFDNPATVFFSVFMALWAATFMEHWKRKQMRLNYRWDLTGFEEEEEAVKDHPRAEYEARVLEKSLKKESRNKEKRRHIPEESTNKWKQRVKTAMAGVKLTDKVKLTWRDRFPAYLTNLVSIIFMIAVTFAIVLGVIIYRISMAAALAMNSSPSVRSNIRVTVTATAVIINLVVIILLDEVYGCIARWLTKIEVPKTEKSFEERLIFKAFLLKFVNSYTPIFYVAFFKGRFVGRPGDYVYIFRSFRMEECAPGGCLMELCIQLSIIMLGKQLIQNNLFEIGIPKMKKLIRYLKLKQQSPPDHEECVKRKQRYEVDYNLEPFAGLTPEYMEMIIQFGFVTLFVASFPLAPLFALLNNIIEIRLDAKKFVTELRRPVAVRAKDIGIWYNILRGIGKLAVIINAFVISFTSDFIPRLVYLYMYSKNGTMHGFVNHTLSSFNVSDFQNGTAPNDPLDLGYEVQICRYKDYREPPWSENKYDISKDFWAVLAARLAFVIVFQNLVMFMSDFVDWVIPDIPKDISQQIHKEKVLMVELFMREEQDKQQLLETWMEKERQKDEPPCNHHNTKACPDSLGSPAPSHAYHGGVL
Assay: QPatch-48 automated whole-cell electrophysiology, cumulative five-concentration single-addition protocol
Format: cell-based
Conditions: full 48-well plate format (with rundown), n = 1; read-out: IC50, full 48-well plate format
Experimental: HEK293T cells stably expressing the human ANO1 channel (isoform acd) were obtained from Scottish Biomedical. Cells were cultured in Sigma Minimum Essential Media containing 10% heat-inactivated fetal bovine serum, 1% penicillin/streptomycin, 1% glutamine, and 600 ng/mL geneticin. […] When subculturing, cells were rinsed once with room temperature 1 × phosphate-buffered saline (PBS; Ca^2+/Mg^2+ free), lifted with TrypLE Express, resuspended in prewarmed growth media, and counted using a hemocytometer. […]
endpoint.name: IC50

>>> df
                          smiles_structure  endpoint_name  result
0  CCc1oc2ccccc2c1C(=O)c1cc(Br)c(O)c(Br)c1           IC50  730 nM
